// ELISA_avg lookup, one value per entry
- TESTED SYSTEM: T1, P26 (human, UniProt P02771 381-609, limits assumed)
- T1 construct: also called AFP p26
- T1 sequence: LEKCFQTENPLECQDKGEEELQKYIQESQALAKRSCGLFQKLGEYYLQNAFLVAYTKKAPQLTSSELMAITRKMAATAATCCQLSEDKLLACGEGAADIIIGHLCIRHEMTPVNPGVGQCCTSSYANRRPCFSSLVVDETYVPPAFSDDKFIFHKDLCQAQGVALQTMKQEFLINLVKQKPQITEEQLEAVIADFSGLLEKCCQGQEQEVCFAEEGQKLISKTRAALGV
- ASSAY PROTOCOL: ELISA, format not described
- Design: unit not given here
QUANTITY: ELISA_avg

INSERT INTO assay_data (binder, quantity, observed_value) VALUES
  ('D domain SEQ ID NO: 886 (designed binder) MGSWYEFRARLLAIDERLWALGGSEAELAAFEKEIAAFESELQAYKGKGNPEVEHLREHAAHIRNFLQAYRHN', 'ELISA_avg', 20.9),
  ('D domain SEQ ID NO: 965 (designed binder) MGSWTHFKEDLAHIKDRLEALGGSEAELAAFELDIAWFEFMLQYYKGKGNPEVEALRKEAAAIRDELQAYRHN', 'ELISA_avg', 30.4),
  ('D domain SEQ ID NO: 859 (designed binder) MGSWFEFYDRLNAIDARLWALGGSEAELAAFEKEIAAFESELQAYKGKGNPEVENLRVHAAAIREWLQAYRHN', 'ELISA_avg', 5.92);
